Target: c-Met kinase domain recombinant protein (Homo sapiens, UniProt P08581)
Construct: 50 μL diluted solution of c-Met kinase domain recombinant protein in reaction buffer was added to initiate the reaction
Sequence (P08581 1078-1345 limits assumed): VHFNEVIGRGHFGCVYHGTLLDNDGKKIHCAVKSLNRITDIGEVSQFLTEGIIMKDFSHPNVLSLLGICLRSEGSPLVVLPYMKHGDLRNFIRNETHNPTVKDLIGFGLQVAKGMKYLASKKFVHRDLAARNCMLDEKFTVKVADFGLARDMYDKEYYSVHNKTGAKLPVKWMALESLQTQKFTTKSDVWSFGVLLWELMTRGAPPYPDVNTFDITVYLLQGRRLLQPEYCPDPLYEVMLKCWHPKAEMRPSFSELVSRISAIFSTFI
Test: biochemical
Details: read-out: Average inhibition rate at 1 μM (%)
Recorded endpoint: inhibition at 1 µM (%)

Solved entries:
[[record]]
structure_smiles = "Cn1cc(-c2cnc3cnn(S(=O)(=O)c4cccc5ccccc45)c3c2)cn1"
reported_measurement = 63.3

[[record]]
structure_smiles = "Cn1cc(-c2ccc3ncc(S(=O)(=O)n4ncc5ncc(NC(=O)c6ccccc6)cc54)n3c2)cn1"
reported_measurement = 100

[[record]]
structure_smiles = "CC(=O)c1ccc(S(=O)(=O)n2ncc3ncc(-c4cnn(C)c4)cc32)cc1"
reported_measurement = 45.3

[[record]]
structure_smiles = "Cn1cc(-c2cnc3cnn(S(=O)(=O)c4cnc5ccc(Cl)cn45)c3c2)cn1"
reported_measurement = 67.8

[[record]]
structure_smiles = "CCOc1cccc(-c2cnc3cnn(S(=O)(=O)c4cnc5ccc([N+](=O)[O-])cn45)c3c2)c1"
reported_measurement = 97.7

[[record]]
structure_smiles = "Cn1cc(-c2cnc3cnn(S(=O)(=O)c4cnc5ccccn45)c3c2)cn1"
reported_measurement = 53.5


(a) O=S(=O)(c1cnc2ccccn12)n1ncc2ncc(-c3cccnc3)cc21
(b) Cn1cc(-c2ccc3ncc(S(=O)(=O)n4ncc5ncc(-c6cnn(C7CCN(C(=O)OC(C)(C)C)CC7)c6)cc54)n3c2)cn1
Prompt: Determine, for a and b , which has the greater value of inhibition at 1 µM. Give the chosen item's label as your response.
Response: b

====

Biological target: c-Met kinase domain recombinant protein (Homo sapiens, UniProt P08581)
Construct: 50 μL diluted solution of c-Met kinase domain recombinant protein in reaction buffer was added to initiate the reaction
Assay: biochemical
Settings: read-out: Average inhibition rate at 1 μM (%)
Recorded endpoint: inhibition at 1 µM (%)

[[record]]
structure_smiles = "COc1ccc2ncc(S(=O)(=O)n3ncc4ncc(-c5cnn(C)c5)cc43)n2c1"
recorded_endpoint = "inhibition at 1 µM"
reported_measurement = 101


(1) O=C(C1CCCC1)N1CCC(n2cc(-c3cnc4cnn(S(=O)(=O)c5cnc6ccccn56)c4c3)cn2)CC1
(2) O=[N+]([O-])c1ccc2ncc(S(=O)(=O)n3ncc4ncc(-c5cc(F)c(F)c(F)c5)cc43)n2c1
Prompt: Hi, I'm comparing two records. Which one has the lower inhibition at 1 µM, 1 or 2 ? Give the chosen item's label as your response.
Response: 1
(1: 56.3%, 2: 84.6%)

(I) CN(C)c1ccc(-c2cnc3cnn(S(=O)(=O)c4cnc5ccccn45)c3c2)cc1
(II) COc1ccc2ncc(S(=O)(=O)n3ncc4ncc(-c5cccc(C(F)(F)F)c5)cc43)n2c1
(III) CC(=O)Nc1ccc2ncc(S(=O)(=O)n3ncc4ncc(-c5cnn(C)c5)cc43)n2c1
Prompt: Arrange the 3 entries by inhibition at 1 µM so the values rise. Sort and list the labels as requested.
Response: III, I, II
(III: 28.7%, I: 58.4%, II: 99.3%)

(A) Cn1cc(-c2cnc3cnn(S(=O)(=O)c4cnc5ccc(-c6ccsc6)cn45)c3c2)cn1
(B) Cn1cc(-c2cnc3cnn(S(=O)(=O)c4ccccc4C(F)(F)F)c3c2)cn1
(C) Cn1cc(-c2cnc3cnn(S(=O)(=O)c4cccc(F)c4)c3c2)cn1
Prompt: // sort entries: inhibition at 1 µM, high to low Sort and list the labels as requested.
Response: A, B, C

(I) Cn1cc(-c2cnc3cnn(S(=O)(=O)c4cnc5ccc(Cl)nn45)c3c2)cn1
(II) CN(C)C(=O)c1ccc(-c2cnc3cnn(S(=O)(=O)c4cnc5ccccn45)c3c2)cc1
Prompt: Determine, for I and II , which has the greater value of inhibition at 1 µM. Give the chosen item's label as your response.
Response: I
(I: 78%, II: 54.6%)
